# Tested on: human umbilical vein endothelial cells (HUVEC)
# TEST DESCRIPTION: HUVEC proliferation assay
# Assay type: cell-based
# MEASUREMENT PARAMETERS: Homo sapiens, HUVEC, table following Table II (untitled); 10 nM; crude combinatorial library; read-out: % inhibition @ 10 nM
PROPERTY MEASURED: inhibition at 0.01 µM (%)

| COMPOUND | MEASURED TARGET | PROPERTY MEASURED | EXPERIMENTAL RESULT |
| --- | --- | --- | --- |
| COc1cccc(CC(=O)Nc2ccc(C)c(-c3noc(-c4sc(Nc5cc(OC)c(OC)c(OC)c5)nc4N)n3)c2)c1 | human umbilical vein endothelial cells (HUVEC) | inhibition at 0.01 µM | 35 |
| COc1cc(Nc2nc(N)c(-c3nc(-c4cc(NC(=O)C5CC(=O)N(C)C5)ccc4C)no3)s2)cc(OC)c1OC (centres unmarked) | human umbilical vein endothelial cells (HUVEC) | inhibition at 0.01 µM | -18 |
| COc1cc(Nc2nc(N)c(-c3nc(-c4cc(NC(=O)/C=C(\C)c5ccccc5C)ccc4C)no3)s2)cc(OC)c1OC | human umbilical vein endothelial cells (HUVEC) | inhibition at 0.01 µM | 8 |
| COc1cc(Nc2nc(N)c(-c3nc(-c4cc(NC(=O)CCCN(C)C)ccc4C)no3)s2)cc(OC)c1OC | human umbilical vein endothelial cells (HUVEC) | inhibition at 0.01 µM | 16 |
| COc1cc(Nc2nc(N)c(-c3nc(-c4cc(NC(=O)c5cc(C)[nH]c5C)ccc4C)no3)s2)cc(OC)c1OC | human umbilical vein endothelial cells (HUVEC) | inhibition at 0.01 µM | 16 |
| COc1cc(Nc2nc(N)c(-c3nc(-c4cc(NC(=O)[C@H]5C[C@@H](C)[C@@H](C)[C@H]5C)ccc4C)no3)s2)cc(OC)c1OC | human umbilical vein endothelial cells (HUVEC) | inhibition at 0.01 µM | 5 |
| COc1cc(Nc2nc(N)c(-c3nc(-c4cc(NC(=O)c5cccc6cc[nH]c56)ccc4C)no3)s2)cc(OC)c1OC | human umbilical vein endothelial cells (HUVEC) | inhibition at 0.01 µM | 41 |
| COc1cc(Nc2nc(N)c(-c3nc(-c4cc(NC(=O)C(=O)Cc5ccccc5)ccc4C)no3)s2)cc(OC)c1OC | human umbilical vein endothelial cells (HUVEC) | inhibition at 0.01 µM | 21 |
| COc1cc(Nc2nc(N)c(-c3nc(-c4cc(NC(=O)Cc5cccnc5)ccc4C)no3)s2)cc(OC)c1OC | human umbilical vein endothelial cells (HUVEC) | inhibition at 0.01 µM | 21 |
| COc1cc(Nc2nc(N)c(-c3nc(-c4cc(NC(=O)c5cc(F)ccc5C)ccc4C)no3)s2)cc(OC)c1OC | human umbilical vein endothelial cells (HUVEC) | inhibition at 0.01 µM | 64 |
| COc1cc(Nc2nc(N)c(-c3nc(-c4cc(NC(=O)/C=C/C5CC[C@H]6C=C[C@@H]5C6)ccc4C)no3)s2)cc(OC)c1OC (some centres unmarked) | human umbilical vein endothelial cells (HUVEC) | inhibition at 0.01 µM | 25 |
| COc1cc(Nc2nc(N)c(-c3nc(-c4cc(NC(=O)CCN5CCCCC5)ccc4C)no3)s2)cc(OC)c1OC | human umbilical vein endothelial cells (HUVEC) | inhibition at 0.01 µM | 28 |
| CCO/C(C)=C/C(=O)Nc1ccc(C)c(-c2noc(-c3sc(Nc4cc(OC)c(OC)c(OC)c4)nc3N)n2)c1 | human umbilical vein endothelial cells (HUVEC) | inhibition at 0.01 µM | 78 |
| COc1cc(Nc2nc(N)c(-c3nc(-c4cc(NC(=O)[C@H]5CCC[C@H]5O)ccc4C)no3)s2)cc(OC)c1OC | human umbilical vein endothelial cells (HUVEC) | inhibition at 0.01 µM | 9 |
| COc1cc(Nc2nc(N)c(-c3nc(-c4cc(NC(=O)[C@@]56C[C@@H]7C[C@@H]5CC7(C)C6)ccc4C)no3)s2)cc(OC)c1OC | human umbilical vein endothelial cells (HUVEC) | inhibition at 0.01 µM | 23 |
| COc1cc(Nc2nc(N)c(-c3nc(-c4cc(NC(=O)C5(c6ccc(C)cc6)CC5)ccc4C)no3)s2)cc(OC)c1OC | human umbilical vein endothelial cells (HUVEC) | inhibition at 0.01 µM | -8 |
| COc1cc(Nc2nc(N)c(-c3nc(-c4cc(NC(=O)C5=CCCN(C)C5)ccc4C)no3)s2)cc(OC)c1OC | human umbilical vein endothelial cells (HUVEC) | inhibition at 0.01 µM | 1 |
| COc1cccc(/C=C/C(=O)Nc2ccc(C)c(-c3noc(-c4sc(Nc5cc(OC)c(OC)c(OC)c5)nc4N)n3)c2)c1 | human umbilical vein endothelial cells (HUVEC) | inhibition at 0.01 µM | 40 |
| CCCN(CCC)CC(=O)Nc1ccc(C)c(-c2noc(-c3sc(Nc4cc(OC)c(OC)c(OC)c4)nc3N)n2)c1 | human umbilical vein endothelial cells (HUVEC) | inhibition at 0.01 µM | 0 |
| COc1cc(Nc2nc(N)c(-c3nc(-c4cc(NC(=O)C5CCCN5C(C)=O)ccc4C)no3)s2)cc(OC)c1OC (centres unmarked) | human umbilical vein endothelial cells (HUVEC) | inhibition at 0.01 µM | -24 |
